Assignment: determine reported Phage binding ELISA, Anti-PSMA Fab signal for the given binders.
Molecular target: T1, Anti-PSMA Fab (SEQ ID NOs: 19, 20)
T1 construct: Biotinylated Fab captured on neutravidin coated plates in the phage ELISA; also called 006 PSMA Fab
Experiment: phage ELISA; biotinylated PSMA Fab on neutravidin plate, bound phage detected with anti-M13 HRP
Give the figure by itself; no unit, no explanation.

What Phage binding ELISA, Anti-PSMA Fab signal value was documented for this binder, EFKWCTPPWMCQWD (Clonal phage of the peptide-180 library) [Phage-2125] ?
1.71

Please look up its Phage binding ELISA, Anti-PSMA Fab signal: EIKWCRPGWMCKVR (Clonal phage of the peptide-180 library) [Phage-2123]
1.71

Would you mind telling me what Phage binding ELISA, Anti-PSMA Fab signal value was observed for EIHLCKPPWMCDWL (Clonal phage of the peptide-180 library) [Phage-2120] ?
1.72

Please report the recorded Phage binding ELISA, Anti-PSMA Fab signal for PLPWCIPVWMCSMI (Clonal phage of the peptide-180 library) [Phage-2129] .
1.71

Requested field: Phage binding ELISA, Anti-PSMA Fab signal. Item: AEKWCIPPWMCEWV (Clonal phage of the peptide-180 library) [Phage-2121]
1.71

Given the binder LVKWCTPPWMCESQ (Clonal phage of the peptide-180 library) [Phage-2130] , what is its reported Phage binding ELISA, Anti-PSMA Fab signal?
1.71

Look up Phage binding ELISA, Anti-PSMA Fab signal for this binder: EMIWCRPAWMCEGI (Clonal phage of the peptide-180 library) [Phage-2118]
1.72

// query Phage binding ELISA, Anti-PSMA Fab signal value for entry LMKWCIPDWMCSHV (Clonal phage of the peptide-180 library) [Phage-2131]
1.71
